# experimentalSystem: mouse melanocortin-1 receptor (mouse) (UniProt Q01727)
# Sequence (Q01727 whole entry): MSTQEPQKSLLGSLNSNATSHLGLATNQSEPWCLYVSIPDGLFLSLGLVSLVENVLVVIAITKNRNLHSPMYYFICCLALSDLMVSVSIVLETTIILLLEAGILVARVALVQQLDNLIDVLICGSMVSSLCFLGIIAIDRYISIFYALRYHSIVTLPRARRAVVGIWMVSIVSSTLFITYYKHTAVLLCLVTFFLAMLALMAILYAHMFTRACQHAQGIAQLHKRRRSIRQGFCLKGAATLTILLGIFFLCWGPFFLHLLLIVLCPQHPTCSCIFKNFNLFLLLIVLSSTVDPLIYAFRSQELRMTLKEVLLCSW
Non-standard residues stand in square brackets, D forms with d.
Each item that follows carries a reported agonist EC50 (cAMP AlphaScreen, HEK293 cells stably expressing the receptor).
observable: agonist EC50 (cAMP AlphaScreen, HEK293 cells stably expressing the receptor)

# binder, observed
rows = [
    ("cyclo(PRFFNAA[dP]) (SMILES C[C@@H]1NC(=O)[C@H](CC(N)=O)NC(=O)[C@H](Cc2ccccc2)NC(=O)[C@H](Cc2ccccc2)NC(=O)[C@H](CCCNC(=N)N)NC(=O)[C@@H]2CCCN2C(=O)[C@H]2CCCN2C(=O)[C@H](C)NC1=O) [c[Pro-Arg-Phe-Phe-Asn-Ala-Ala-DPro]]", "> 100 µM"),
    ("cyclo(PRFFTAF[dP]) (SMILES C[C@@H]1NC(=O)[C@H]([C@@H](C)O)NC(=O)[C@H](Cc2ccccc2)NC(=O)[C@H](Cc2ccccc2)NC(=O)[C@H](CCCNC(=N)N)NC(=O)[C@@H]2CCCN2C(=O)[C@H]2CCCN2C(=O)[C@H](Cc2ccccc2)NC1=O) [c[Pro-Arg-Phe-Phe-Thr-Ala-Phe-DPro]]", "> 100 µM"),
    ("cyclo(PRFFEAF[dP]) [c[Pro-Arg-Phe-Phe-Glu-Ala-Phe-DPro]]", "20.5 µM"),
]
